The values you see were collected from ChEMBL document CHEMBL3877265.

# Protocol: Antiproliferative activity against human MDA-MB-231 cells after 48 hrs by SRB assay
# Type: functional
# Run Conditions: MDA-MB-231, 48 h, read-out: pGI50 (converted)
Reported Metric: GI50 (nM)
Answers are plain numbers, in nM.

Challenge: Sample CN1CCN(C(=O)CCNC(=O)c2c(O)c3ccccc3n(C)c2=O)CC1 — what was its GI50?
Response given: 590

Challenge: Which GI50 is listed for Cn1c(=O)c(C(=O)NCCC(=O)N2CCC(Cc3ccccc3)CC2)c(O)c2ccccc21 ?
Response given: 710

Challenge: Please give the measured GI50 for this compound: COc1ccc(C[C@@H](O)c2cc(OC)c(OC)c(OC)c2)cc1O [COMBRETASTATIN]
Response given: 90

Challenge: Look at this compound and give its reported GI50. Cn1c(=O)c(C(=O)NCCC(=O)N2CCN(Cc3ccccc3)CC2)c(O)c2ccccc21
Response given: 510

Challenge: Bench note: what GI50 did Cn1c(=O)c(C(=O)NCCC(=O)N2CCSCC2)c(O)c2ccccc21 show?
Response given: 2250

Challenge: # query: GI50 of entry COc1cccc(N2CCN(C(=O)CCNC(=O)c3c(O)c4ccccc4n(C)c3=O)CC2)c1
Response given: 1300

Challenge: Which GI50 is listed for CCN1CCN(C(=O)CCNC(=O)c2c(O)c3ccccc3n(C)c2=O)CC1 ?
Response given: 1320

Challenge: // GI50 lookup, key: COc1ccccc1N1CCN(C(=O)CCNC(=O)c2c(O)c3ccccc3n(C)c2=O)CC1
Response given: 1200

// next item, GI50 requested
Challenge: For the compound Cn1c(=O)c(C(=O)NCCC(=O)N2CCN(c3ccc(C(F)(F)F)cc3)CC2)c(O)c2ccccc21 , what GI50 is on record?
Response given: 5400

###

Record form. Attribute: GI50. Fill in for each entry.
# Protocol: Antiproliferative activity against human HeLa cells after 48 hrs by SRB assay
# Type: functional
# Run Conditions: read-out: pGI50 (converted)
Answers are plain numbers, in nM.

Check out these entries, answers already filled in.
Challenge: Which GI50 value is on record for Cn1c(=O)c(C(=O)NCCC(=O)N2CCSCC2)c(O)c2ccccc21 ?
Response given: 3000

Challenge: Using the record for CN1CCN(C(=O)CCNC(=O)c2c(O)c3ccccc3n(C)c2=O)CC1 , report its GI50.
Response given: 1160

Challenge: Item under review: COc1ccccc1N1CCN(C(=O)CCNC(=O)c2c(O)c3ccccc3n(C)c2=O)CC1 . Reported GI50?
Response given: 740

Challenge: I have this compound here, Cn1c(=O)c(C(=O)NCCC(=O)N2CCC(Cc3ccccc3)CC2)c(O)c2ccccc21 , and I need its recorded GI50.
Response given: 1400

Challenge: # query: GI50 of entry Cn1c(=O)c(C(=O)NCCC(=O)N2CCN(c3ccccc3)CC2)c(O)c2ccccc21
Response given: 3900

Please give GI50, item by item, for the list that follows.
1. Cn1c(=O)c(C(=O)NCCC(=O)N2CCCCC2)c(O)c2ccccc21
2. Cn1c(=O)c(C(=O)NCCC(=O)N2CCN(Cc3ccccc3)CC2)c(O)c2ccccc21

Response given:
1. 820
2. 760

Go through the items and report each one's GI50.
1. CCN1CCN(C(=O)CCNC(=O)c2c(O)c3ccccc3n(C)c2=O)CC1
2. Cn1c(=O)c(C(=O)NCCC(=O)N2CCN(c3ccccc3F)CC2)c(O)c2ccccc21
3. COc1cccc(N2CCN(C(=O)CCNC(=O)c3c(O)c4ccccc4n(C)c3=O)CC2)c1

Response given:
[880, 960, 730]
